Reference source: the supplement of paper PMC3334620

Measurement Target: Gcr1 (UniProt P07261)
Sequence: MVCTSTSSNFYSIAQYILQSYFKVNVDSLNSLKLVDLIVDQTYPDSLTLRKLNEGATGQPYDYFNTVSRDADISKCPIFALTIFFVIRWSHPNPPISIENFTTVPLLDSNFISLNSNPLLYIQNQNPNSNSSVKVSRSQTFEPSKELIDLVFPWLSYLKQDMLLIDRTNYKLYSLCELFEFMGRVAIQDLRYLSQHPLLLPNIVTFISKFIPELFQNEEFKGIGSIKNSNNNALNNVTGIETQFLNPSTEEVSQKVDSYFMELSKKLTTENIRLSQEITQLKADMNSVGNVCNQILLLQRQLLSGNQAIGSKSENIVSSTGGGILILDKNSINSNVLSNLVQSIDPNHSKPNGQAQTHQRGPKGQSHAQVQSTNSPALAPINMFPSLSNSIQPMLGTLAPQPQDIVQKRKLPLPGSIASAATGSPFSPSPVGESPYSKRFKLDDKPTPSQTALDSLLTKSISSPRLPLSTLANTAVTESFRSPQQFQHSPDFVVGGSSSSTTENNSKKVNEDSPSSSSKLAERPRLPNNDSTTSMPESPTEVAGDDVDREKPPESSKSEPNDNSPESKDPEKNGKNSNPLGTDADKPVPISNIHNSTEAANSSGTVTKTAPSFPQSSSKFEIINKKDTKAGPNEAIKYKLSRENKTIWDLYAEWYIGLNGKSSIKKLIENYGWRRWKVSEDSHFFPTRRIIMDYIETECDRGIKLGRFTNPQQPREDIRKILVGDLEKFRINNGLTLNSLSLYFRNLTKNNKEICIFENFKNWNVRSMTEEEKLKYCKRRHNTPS
Experiment Summary: PBM E-score (8-mer binding enrichment) (E-score (-0.5 to 0.5)); higher = stronger / more preferred TF binding
Condition: protein concentration: 100 nM; construct: GST-full length
Whole data set: some 33,000 sequences, median “E-score (-0.5 to 0.5)” near -0.011, cut for the highest 2% near 0.28. Many of the other results were omitted from the sample, so the highest values are more common in it than they were.
Provide the reported PBM E-score of each item.
Give your answer as a number; write no unit.

The recorded PBM E-score with Gcr1 (UniProt P07261) for AGTAGCAA was 0.111

Entry CGGGATAA under Gcr1 (UniProt P07261) had PBM E-score of 0.0532

So the reported PBM E-score for CAAGCTAC , on Gcr1 (UniProt P07261), turned out to be 0.108

Form: item CGTCTCCC ; test system Gcr1 (UniProt P07261); PBM E-score: 0.0616

Item: ATGGATCC | System: Gcr1 (UniProt P07261) | PBM E-score: 0.278

Bench note, Gcr1 (UniProt P07261): entry TATTTAAA , its PBM E-score = 0.243

Form field, PBM E-score with Gcr1 (UniProt P07261), item AGTCTCCA : 0.0915

// returns PBM E-score for GGTATTCA with Gcr1 (UniProt P07261); value = 0.0919

Entry ATATACTA : PBM E-score on Gcr1 (UniProt P07261) = 0.174

The value of PBM E-score recorded for CATTAAAA when tested on Gcr1 (UniProt P07261) reads 0.306

The measured PBM E-score that ACGGATTC showed for Gcr1 (UniProt P07261) is 0.237

Readout PBM E-score for AAAGCTAA , test system Gcr1 (UniProt P07261), was -0.0138

Reading of PBM E-score for ATTAAAAG with Gcr1 (UniProt P07261): 0.239

Form: item CCGGATTA ; test system Gcr1 (UniProt P07261); PBM E-score: -0.0163

For the sequence ATTAAAAC , the measured PBM E-score on Gcr1 (UniProt P07261) was 0.113

Note to self: PBM E-score of GGGGATAC with Gcr1 (UniProt P07261) was 0.0984

Per the reported Gcr1 (UniProt P07261) data, CGAACTAC has PBM E-score of 0.00469

Let me check: CTTCCTTA , system Gcr1 (UniProt P07261), measured PBM E-score is 0.153

Known value: Gcr1 (UniProt P07261) PBM E-score of the sequence AGTAGCAC equals 0.287

Measured PBM E-score (Gcr1 (UniProt P07261)), entry GGACCGAA : 0.0294

The reported PBM E-score value, Gcr1 (UniProt P07261), for CTGGATCC reads 0.346

Item AGGGATTC was tested on Gcr1 (UniProt P07261); the reported PBM E-score is 0.276
